Cited source: patent US20240287154A1

# TARGET_ENTITY: human MC3R (human, UniProt P41968 1-323)
# Sequence (P41968 whole entry): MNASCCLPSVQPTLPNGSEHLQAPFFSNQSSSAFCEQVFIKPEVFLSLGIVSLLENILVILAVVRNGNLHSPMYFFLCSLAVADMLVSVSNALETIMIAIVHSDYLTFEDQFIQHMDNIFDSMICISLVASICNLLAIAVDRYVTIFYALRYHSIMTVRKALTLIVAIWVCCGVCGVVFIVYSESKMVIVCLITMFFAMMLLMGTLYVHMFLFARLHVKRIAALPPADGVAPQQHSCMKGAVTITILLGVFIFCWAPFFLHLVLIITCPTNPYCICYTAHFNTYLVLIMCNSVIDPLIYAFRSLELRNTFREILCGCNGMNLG
# TEST_NAME: cell-based or functional assay
Non-standard residues stand in square brackets, D forms with d. Phe(4-F) = N[C@@H](Cc1ccc(F)cc1)C(=O)O; Nle = CCCC[C@H](N)C(=O)O
OBSERVED_PROPERTY: MC3R cAMP (EC50)

For every item in the list below, what is its measured MC3R cAMP (EC50)?
1. H-YVE[dA]H[dF]R[dW]DRFG-OH (SMILES CC(C)[C@H](NC(=O)[C@@H](N)Cc1ccc(O)cc1)C(=O)N[C@@H](CCC(=O)O)C(=O)N[C@H](C)C(=O)N[C@@H](Cc1c[nH]cn1)C(=O)N[C@H](Cc1ccccc1)C(=O)N[C@@H](CCCNC(=N)N)C(=O)N[C@H](Cc1c[nH]c2ccccc12)C(=O)N[C@@H](CC(=O)O)C(=O)N[C@@H](CCCNC(=N)N)C(=O)N[C@@H](Cc1ccccc1)C(=O)NCC(=O)O) [CTX-1106]
2. Ac-[Nle][dA]H[Phe(4-F)]R[dW]DRFG-OH (SMILES CCCC[C@H](NC(C)=O)C(=O)N[C@H](C)C(=O)N[C@@H](Cc1c[nH]cn1)C(=O)N[C@@H](Cc1ccc(F)cc1)C(=O)N[C@@H](CCCNC(=N)N)C(=O)N[C@H](Cc1c[nH]c2ccccc12)C(=O)N[C@@H](CC(=O)O)C(=O)N[C@@H](CCCNC(=N)N)C(=O)N[C@@H](Cc1ccccc1)C(=O)NCC(=O)O) [CTX-1518]
3. Ac-SGHFR[dW]D-NH2 [CTX-1110]
4. H-YV[Nle]GH[dF]R[dW]D-NH2 (SMILES CCCC[C@H](NC(=O)[C@@H](NC(=O)[C@@H](N)Cc1ccc(O)cc1)C(C)C)C(=O)NCC(=O)N[C@@H](Cc1c[nH]cn1)C(=O)N[C@H](Cc1ccccc1)C(=O)N[C@@H](CCCNC(=N)N)C(=O)N[C@H](Cc1c[nH]c2ccccc12)C(=O)N[C@@H](CC(=O)O)C(N)=O) [CTX-1107]
5. Ac-TGHFR[dW]D-NH2 (SMILES CC(=O)N[C@H](C(=O)NCC(=O)N[C@@H](Cc1c[nH]cn1)C(=O)N[C@@H](Cc1ccccc1)C(=O)N[C@@H](CCCNC(=N)N)C(=O)N[C@H](Cc1c[nH]c2ccccc12)C(=O)N[C@@H](CC(=O)O)C(N)=O)[C@@H](C)O) [CTX-1112]

Outgoing:
1: 5.8 nM; 2: 1.9 nM; 3: 7400 nM; 4: 4.4 nM; 5: 4090 nM

Incoming: Entry Ac-[Nle][dA]HFR[dW]F-NH2 (SMILES CCCC[C@H](NC(C)=O)C(=O)N[C@H](C)C(=O)N[C@@H](Cc1c[nH]cn1)C(=O)N[C@@H](Cc1ccccc1)C(=O)N[C@@H](CCCNC(=N)N)C(=O)N[C@H](Cc1c[nH]c2ccccc12)C(=O)N[C@@H](Cc1ccccc1)C(N)=O) [CTX-1541] needs its MC3R cAMP (EC50) filled in; supply it.
Outgoing: 65.2 nM
